Value source: ChEMBL document CHEMBL1641580

Assay: Cytotoxicity against african green monkey Vero cells after 48 hrs by neutral red assay
Type: cell-based
Conditions: chlorocebus sabaeus, read-out: TC50
Reported metric: CC50 at 48 h

-- ask Would you mind telling me what CC50 at 48 h value was observed for `C[n+]1cc(N(CCCCCC2CCCCC2)c2cccc(Cl)c2)cc2ccccc21.[I-]` ?
-- reply > 10 µg/mL

-- ask Would you mind telling me what CC50 at 48 h value was observed for `Clc1ccc(Nc2cc3ccccc3[n+](CCCCCc3ccccc3)c2)cc1.[I-]` ?
-- reply > 25 µg/mL

-- ask Would you mind telling me what CC50 at 48 h value was observed for `C[n+]1cccc(N(CCCCCC2CCCCC2)c2ccccc2)c1.[I-]` ?
-- reply > 10 µg/mL

***
-- ask Would you mind telling me what CC50 at 48 h value was observed for `C[n+]1c2cccc(Cl)c2cc2[nH]c3ccccc3c21.O=S(=O)([O-])C(F)(F)F` ?
-- reply 5 µg/mL

-- ask Would you mind telling me what CC50 at 48 h value was observed for C[C@@H]1[C@H](O)[C@@H](C)/C=C/C=C/C=C/C=C/C=C/C=C/C=C/[C@H](O[C@@H]2O[C@H](C)[C@@H](O)[C@H](N)[C@@H]2O)C[C@@H]2O[C@](O)(C[C@@H](O)C[C@@H](O)[C@H](O)CC[C@@H](O)C[C@@H](O)CC(=O)O[C@H]1C)C[C@H](O)[C@H]2C(=O)O [AMPHOTERICIN B] ?
-- reply 7.6 µg/mL
